# assayed.target: T1, ADI-22523 IgG
# T1 construct: anti-CD3 IgG
# T1 sequence (VH, as listed by the source limits assumed, chain 1 of 2): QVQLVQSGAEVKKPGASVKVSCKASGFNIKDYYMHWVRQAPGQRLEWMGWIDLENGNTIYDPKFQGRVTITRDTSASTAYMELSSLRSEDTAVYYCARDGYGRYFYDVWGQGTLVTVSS
# T1 sequence (VL, as listed by the source limits assumed, chain 2 of 2): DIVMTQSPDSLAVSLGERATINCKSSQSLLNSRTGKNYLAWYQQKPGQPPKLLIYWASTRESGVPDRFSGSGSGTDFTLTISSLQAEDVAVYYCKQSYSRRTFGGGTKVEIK
# assay: BLI; tip anti-ID IgG, solution ADI-22523 IgG
assay.endpoint: log10 Kd (log10 of the value in nM)
All values: log10 Kd [nM].

Enquiry: Please supply the value of reported log10 Kd for the item ADI-34134 IgG (antibody, V domains shown) VH: QVQLVQSGAEVKKPGSSVKVSCKASGGTFSSYAISWVRQAPGQGLEWMGGIIPIFGTANYAQKFQGRVTITADESTSTAYMELSSLRSEDTAVYYCARGAPNYYGSGGYDDGWFDPWGQGTLVTVSS VL: EIVLTQSPGTLSLSPGERATLSCRASQSVSSDYLAWYQQKPGQAPRLLIYGASSRATGIPDRFSGSGSGTDFTLTISRLEPEDFAVYYCQQFGRVPTFGGGTKVEIK
Return: -0.34

Enquiry: Please supply the value of reported log10 Kd for the item ADI-34135 (antibody, V domains shown, anti-ID IgG) VH: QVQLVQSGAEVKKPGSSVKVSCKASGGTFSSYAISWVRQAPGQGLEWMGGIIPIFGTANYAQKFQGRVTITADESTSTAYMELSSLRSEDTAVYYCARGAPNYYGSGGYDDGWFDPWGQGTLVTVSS VL: EIVMTQSPGTLSLSPGERATLSCRASQSVSSSYLAWYQQKPGQAPRLLIYGASSRATGIPDRFSGSGSGTDFTLTISRLEPEDFAVYYCQQFGRYPTFGGGTKVEIK
Return: -0.27

Enquiry: Please supply the value of reported log10 Kd for the item ADI-30242 (antibody, V domains shown, anti-ID IgG) VH: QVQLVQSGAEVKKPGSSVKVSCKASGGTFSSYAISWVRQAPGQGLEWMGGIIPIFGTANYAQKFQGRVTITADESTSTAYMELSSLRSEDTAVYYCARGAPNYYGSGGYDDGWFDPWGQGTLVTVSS VL: EIVLTQSPGTLSLSPGERATLSCRASQSVSSSYLAWYQQKPGQAPRLLIYGASSRATGIPDRFSGSGSGTDFTLTISRLEPEDFAVYYCQQFGRDPTFGGGTKVEIK
Return: -0.24

Enquiry: Please supply the value of reported log10 Kd for the item ADI-34138 (antibody, V domains shown, anti-ID IgG) VH: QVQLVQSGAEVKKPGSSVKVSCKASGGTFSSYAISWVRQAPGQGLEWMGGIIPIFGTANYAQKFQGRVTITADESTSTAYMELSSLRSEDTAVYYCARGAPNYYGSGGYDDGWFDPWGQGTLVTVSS VL: EIVMTQSPGTLSLSPGERATLSCRASQSVSSSYLAWYQQKPGQAPRLLIYGASNRATGIPDRFSGSGSGTDFTLTISRLEPEDFAVYYCQQAHTALWTFGGGTKVEIK
Return: -0.24

Enquiry: Please supply the value of reported log10 Kd for the item ADI-34137 (antibody, V domains shown, anti-ID IgG) VH: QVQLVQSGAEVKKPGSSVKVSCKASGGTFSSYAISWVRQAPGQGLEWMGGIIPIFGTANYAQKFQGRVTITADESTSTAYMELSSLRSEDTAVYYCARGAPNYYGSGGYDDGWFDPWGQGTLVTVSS VL: EIVLTQSPGTLSLSPGERATLSCRASQSVSSSYLAWYQQKPGQAPRLLIYGASSRATGIPDRFSGSGSGTDFTLTISRLEPEDFAVYYCQQFGRFPTFGGGTKVEIK
Return: -0.20

Enquiry: Please supply the value of reported log10 Kd for the item ADI-34132 (antibody, V domains shown, anti-ID IgG) VH: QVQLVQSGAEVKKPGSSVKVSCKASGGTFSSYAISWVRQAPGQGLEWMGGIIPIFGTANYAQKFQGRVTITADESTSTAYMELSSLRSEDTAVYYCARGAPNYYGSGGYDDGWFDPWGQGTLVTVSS VL: DIQLTQSPSSLSASVGDRVTITCRASQSISSYLNWYQQKPGKAPKLLIYAASNLQSGVPSRFSGSGSGTDFTLTISSLQPEDFATYYCQQTLHTPITFGGGTKVEIK
Return: 1.93
